pKi: −log10 of the molar value.
These compounds were tested on Muscarinic acetylcholine receptor M3 (Homo sapiens, UniProt P20309); pKi is the recorded read-out.
Sequence (P20309 whole entry): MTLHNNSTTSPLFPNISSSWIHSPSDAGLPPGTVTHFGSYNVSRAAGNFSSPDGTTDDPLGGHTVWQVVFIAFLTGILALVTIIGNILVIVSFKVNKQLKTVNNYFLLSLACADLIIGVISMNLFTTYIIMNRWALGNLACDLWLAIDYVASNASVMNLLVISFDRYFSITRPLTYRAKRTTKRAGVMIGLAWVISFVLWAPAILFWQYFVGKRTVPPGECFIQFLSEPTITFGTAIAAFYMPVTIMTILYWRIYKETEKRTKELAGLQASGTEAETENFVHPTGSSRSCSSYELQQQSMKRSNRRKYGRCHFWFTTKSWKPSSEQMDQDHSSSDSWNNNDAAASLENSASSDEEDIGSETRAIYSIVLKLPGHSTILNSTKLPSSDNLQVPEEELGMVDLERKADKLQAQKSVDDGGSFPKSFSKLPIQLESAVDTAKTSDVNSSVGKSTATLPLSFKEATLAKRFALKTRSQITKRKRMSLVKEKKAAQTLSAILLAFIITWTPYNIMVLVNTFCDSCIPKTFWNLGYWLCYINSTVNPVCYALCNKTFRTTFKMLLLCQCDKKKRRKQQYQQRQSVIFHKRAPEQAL
quantity: pKi

CCCCCCCCCCCCCC(OC(=O)C(CCCCN(O)C(C)=O)NC(=O)c1coc(-c2ccccc2O)n1)C(C)C(=O)NC1CCCCNC1=O (stereo not drawn) : 6.01

A = CCCCCCCCCC(OC(=O)C(CCCCN(O)C(C)=O)NC(=O)c1coc(-c2ccccc2O)n1)C(C)C(=O)NC1CCCCN(O)C1=O (stereo not drawn)
B = CCCCCCCCCCCCCC(OC(=O)C(CCCCN(O)C(C)=O)NC(=O)c1coc(-c2ccccc2O)n1)C(C)C(=O)NC1CCCCN(O)C1=O (stereo not drawn)
## Task Between A and B , whose measured pKi reads higher? Pick one and reply with its label.
## Result B

---

# target-desc: UniProt:P11229
# Sequence (P11229 whole entry): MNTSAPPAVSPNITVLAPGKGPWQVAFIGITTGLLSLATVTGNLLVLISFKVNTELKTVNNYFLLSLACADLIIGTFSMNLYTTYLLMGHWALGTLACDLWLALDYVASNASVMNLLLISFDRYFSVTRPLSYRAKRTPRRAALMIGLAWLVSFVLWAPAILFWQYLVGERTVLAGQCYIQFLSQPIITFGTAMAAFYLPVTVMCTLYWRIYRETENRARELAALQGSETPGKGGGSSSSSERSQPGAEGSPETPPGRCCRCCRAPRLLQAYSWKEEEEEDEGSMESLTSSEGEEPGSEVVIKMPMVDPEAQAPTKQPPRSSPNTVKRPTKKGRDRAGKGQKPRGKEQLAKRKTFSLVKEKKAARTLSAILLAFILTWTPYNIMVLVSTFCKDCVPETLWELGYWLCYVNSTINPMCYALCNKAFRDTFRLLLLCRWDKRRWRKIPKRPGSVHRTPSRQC
quantity: pIC50
Scale explanation: pIC50 corresponds to minus log10 of a concentration expressed in moles per litre.

## Task Record CCCCCCCCCCCC(OC(=O)C(CCCCN(O)C(C)=O)NC(=O)c1coc(-c2ccccc2O)n1)C(C)C(=O)NC1CCCCN(O)C1=O (stereo unspecified) : what is its pIC50 with UniProt:P11229?
## Result 5.69

---

pIC50: −log10 of the molar value.
Please consider the recorded pIC50 for Muscarinic acetylcholine receptor M3 (Homo sapiens, UniProt P20309) in what follows.
quantity: pIC50

Reference set (2 entries):
CCCCCCCCCC(OC(=O)C(CCCCN(O)C(C)=O)NC(=O)c1coc(-c2ccccc2O)n1)C(C)C(=O)NC1CCCCN(O)C1=O (stereo not given) : 5.23
CCCCCCCCCCCCCC(OC(=O)C(CCCCN(O)C(C)=O)NC(=O)c1coc(-c2ccccc2O)n1)C(C)C(=O)NC1CCCCNC1=O (stereo not given) : 5.34

A = CCCCCCCCCCCC(OC(=O)C(CCCCN(O)C(C)=O)NC(=O)c1coc(-c2ccccc2O)n1)C(C)C(=O)NC1CCCCN(O)C1=O (stereo not given)
B = CCCCCCCCCCCC(OC(=O)C(CCCCN(O)C(C)=O)NC(=O)c1coc(-c2ccccc2O)n1)C(C)C(=O)NC1CCCCNC1=O (stereo not given)
C = CCCCCCCCCCCCCC(OC(=O)C(CCCCN(O)C(C)=O)NC(=O)c1coc(-c2ccccc2O)n1)C(C)C(=O)NC1CCCCN(O)C1=O (stereo not given)
## Task Sort entries by pIC50 from minimum to maximum value. Please respond by ranking the labels in the order requested.
## Result B, C, A
(B: 5.33, C: 5.96, A: 6.20)

---

Target chain: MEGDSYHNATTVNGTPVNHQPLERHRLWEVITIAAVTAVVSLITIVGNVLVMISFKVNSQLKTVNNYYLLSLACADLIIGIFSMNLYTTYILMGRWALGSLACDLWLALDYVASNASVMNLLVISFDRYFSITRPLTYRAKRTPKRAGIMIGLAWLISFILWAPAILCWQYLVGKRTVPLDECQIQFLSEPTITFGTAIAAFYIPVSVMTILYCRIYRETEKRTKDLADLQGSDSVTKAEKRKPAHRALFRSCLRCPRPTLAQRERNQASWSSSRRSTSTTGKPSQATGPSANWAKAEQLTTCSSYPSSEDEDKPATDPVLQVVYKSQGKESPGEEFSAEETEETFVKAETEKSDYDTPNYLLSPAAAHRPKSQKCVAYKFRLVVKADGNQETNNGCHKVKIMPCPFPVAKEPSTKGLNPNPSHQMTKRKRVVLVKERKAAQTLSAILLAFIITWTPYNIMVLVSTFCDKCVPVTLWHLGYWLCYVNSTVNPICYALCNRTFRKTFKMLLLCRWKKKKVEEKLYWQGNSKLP
quantity: IC50 (nM)
A number alone suffices; assume nM.

## Task Please report the recorded IC50 for CCCCCCCCCCCC(OC(=O)C(CCCCN(O)C(C)=O)NC(=O)c1coc(-c2ccccc2O)n1)C(C)C(=O)NC1CCCCN(O)C1=O (stereo unspecified) [NOCARDIMICIN B] .
## Result 1640

Attribution: ChEMBL document CHEMBL1141748
